B1: glmS ribozyme (parent)
chain: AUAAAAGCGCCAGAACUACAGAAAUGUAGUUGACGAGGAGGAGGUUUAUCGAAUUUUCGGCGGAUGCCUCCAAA

variants of: B1; assay: self-cleavage kobs at 640 uM GlcN6P; higher = faster cleavage; RNA array; settings: with glucosamine-6-phosphate
This sample holds only a part of the variants without activity.
Exercise: for every item that follows, state its recorded self-cleavage kobs at 640 uM GlcN6P.
State the answer as a number, implicitly in s⁻¹.

Item C16U U54A : provide self-cleavage kobs at 640 uM GlcN6P
0.00323

Item U45C U46G C67G : provide self-cleavage kobs at 640 uM GlcN6P
9.48e-05

Item G13C A15U : provide self-cleavage kobs at 640 uM GlcN6P
3.78e-05

Item G29A C67U : provide self-cleavage kobs at 640 uM GlcN6P
0.00034

Item U45C C67A : provide self-cleavage kobs at 640 uM GlcN6P
0.00119

Item G41C A53C : provide self-cleavage kobs at 640 uM GlcN6P
1.93e-05

Item A39G A53C C67U : provide self-cleavage kobs at 640 uM GlcN6P
0.00111

Item G37A U47C : provide self-cleavage kobs at 640 uM GlcN6P
0.000181

Item A14C U47A : provide self-cleavage kobs at 640 uM GlcN6P
0.000676

Item A15C A39U U47A U54G : provide self-cleavage kobs at 640 uM GlcN6P
0.000184

Item G29U G66A : provide self-cleavage kobs at 640 uM GlcN6P
0.000732

Item A14C U45G : provide self-cleavage kobs at 640 uM GlcN6P
0.000181

Item A39G G40U U55C C71A : provide self-cleavage kobs at 640 uM GlcN6P
0.00178

Item A15U U30A C68G : provide self-cleavage kobs at 640 uM GlcN6P
9.94e-05

Item G29A G63C C70G : provide self-cleavage kobs at 640 uM GlcN6P
0.000155

Item U54A A64G C68G : provide self-cleavage kobs at 640 uM GlcN6P
5.8e-05

Item A12U U30C A53C : provide self-cleavage kobs at 640 uM GlcN6P
0.000316

Item A64G G66C : provide self-cleavage kobs at 640 uM GlcN6P
0.00057

Item A39U U47A : provide self-cleavage kobs at 640 uM GlcN6P
0.00397

Item U30C U31C : provide self-cleavage kobs at 640 uM GlcN6P
0.000788

Item A12C U65A : provide self-cleavage kobs at 640 uM GlcN6P
0.000345

Item A12U A15U A42G : provide self-cleavage kobs at 640 uM GlcN6P
0.00157

Item C58U G62A C68G : provide self-cleavage kobs at 640 uM GlcN6P
6.69e-05

Item A15G G32U : provide self-cleavage kobs at 640 uM GlcN6P
0.000208

Item A6C C8G C11A A52C U57G G63C U69G : provide self-cleavage kobs at 640 uM GlcN6P
0.0016

Item `G43A` : provide self-cleavage kobs at 640 uM GlcN6P
2.21e-05

Item G29C C68U : provide self-cleavage kobs at 640 uM GlcN6P
0.000112

Item U31G A39C U45A : provide self-cleavage kobs at 640 uM GlcN6P
0.000642

Item U55G C61A G66C C70A : provide self-cleavage kobs at 640 uM GlcN6P
0.000153

Item A15G G37U C58A C70A : provide self-cleavage kobs at 640 uM GlcN6P
6.04e-05

Item A6G C8G C11G G13U C50G C61A C71U : provide self-cleavage kobs at 640 uM GlcN6P
0.00556

Item G29A C50U C68A : provide self-cleavage kobs at 640 uM GlcN6P
4.21e-05

Item C10A A14U A52U C70G : provide self-cleavage kobs at 640 uM GlcN6P
0.000294

Item A14G C50G G51C C61U U69A : provide self-cleavage kobs at 640 uM GlcN6P
0.000136

Item G29C U30C G37C C70G : provide self-cleavage kobs at 640 uM GlcN6P
0.000358

Item A15U U47A : provide self-cleavage kobs at 640 uM GlcN6P
0.000846

Item U30C A64G : provide self-cleavage kobs at 640 uM GlcN6P
0.000122

Item U30A G37A : provide self-cleavage kobs at 640 uM GlcN6P
6.25e-05

Item A39C A52G : provide self-cleavage kobs at 640 uM GlcN6P
4.74e-05
